assay.protocol: melting temperature; fluorescence melt of hairpins on a sequencing array, two-state fit, raised by 9.35 °C to match UV melts
experimental.parameters: sodium 0.088 M
metric: Tm (°C)
Kindly provide the numeric value in °C only, without the unit symbol.

These solved cases illustrate the format of a correct answer.
[
  {
    "chain": "GGTTAAGAAATTAACC ((((((....))))))",
    "metric": "Tm",
    "numeric.readout": 43.5
  },
  {
    "chain": "GATCTTGTGAAAGATC ((((((....))))))",
    "metric": "Tm",
    "numeric.readout": 51.2
  },
  {
    "chain": "GCGCGCGAAAGCGTACGC ((((((....)))..)))",
    "metric": "Tm",
    "numeric.readout": 61.5
  },
  {
    "chain": "GCTTAGCGAAAGCCATGC ((.(.((....)).).))",
    "metric": "Tm",
    "numeric.readout": 29.6
  }
]

The reported value for GTACCCGAAAGGGACTAC ((((((....)))..))) in terms of Tm is 45.8

The reported value for GATCGGTGCCCGATC ((((((...)))))) in terms of Tm is 58

The reported value for GATCGTATTTACGATC ((((((....)))))) in terms of Tm is 57.6

The reported value for GGATTGCGAAAGCAGTCC (((.(((....))).))) in terms of Tm is 60.2

The reported value for GCTCGCGGAAACGTGGGC ((.(.((....)).).)) in terms of Tm is 50.2

The reported value for GATCTAAAACTAGATC ((((((....)))))) in terms of Tm is 31.1
